# TARGET_UNDER_TEST: T1, TNFR1 (Homo sapiens, UniProt P19438)
# T1 chain: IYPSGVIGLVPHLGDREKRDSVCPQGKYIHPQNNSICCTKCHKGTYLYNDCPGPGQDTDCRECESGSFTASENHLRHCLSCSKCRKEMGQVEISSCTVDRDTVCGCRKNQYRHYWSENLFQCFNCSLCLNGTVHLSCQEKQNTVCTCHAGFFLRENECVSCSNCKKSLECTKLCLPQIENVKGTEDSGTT
# ASSAY_EXPLANATION: yeast display SC50
Class TRUE: apparent Kd (screen) at least 1 nM. Class FALSE: apparent Kd (screen) below 1 nM.

* K8C (designed binder) SMEEEVECAAKEYEKKKKEAIEKHLEKLKAKDKEAAERFLKELEEAAKEYAKDEAKTMSEEEAKRRAKKYKEKVLLSELSEEEQKEIKEAEEKLVRTILKYVEEAAK | FALSE
* S77Q (designed binder) SMEEEVEKAAKEYEKKKKEAIEKHLEKLKAKDKEAAERFLKELEEAAKEYAKDEAKTMSEEEAKRRAKKYKEKVLLQELSEEEQKEIKEAEEKLVRTILKYVEEAAK | TRUE
* A10P (designed binder) SMEEEVEKAPKEYEKKKKEAIEKHLEKLKAKDKEAAERFLKELEEAAKEYAKDEAKTMSEEEAKRRAKKYKEKVLLSELSEEEQKEIKEAEEKLVRTILKYVEEAAK | TRUE
* E103F (designed binder) SMEEEVEKAAKEYEKKKKEAIEKHLEKLKAKDKEAAERFLKELEEAAKEYAKDEAKTMSEEEAKRRAKKYKEKVLLSELSEEEQKEIKEAEEKLVRTILKYVFEAAK | TRUE
* K69A (designed binder) SMEEEVEKAAKEYEKKKKEAIEKHLEKLKAKDKEAAERFLKELEEAAKEYAKDEAKTMSEEEAKRRAKAYKEKVLLSELSEEEQKEIKEAEEKLVRTILKYVEEAAK | FALSE
* S59M (designed binder) SMEEEVEKAAKEYEKKKKEAIEKHLEKLKAKDKEAAERFLKELEEAAKEYAKDEAKTMMEEEAKRRAKKYKEKVLLSELSEEEQKEIKEAEEKLVRTILKYVEEAAK | TRUE
* E44R (designed binder) SMEEEVEKAAKEYEKKKKEAIEKHLEKLKAKDKEAAERFLKELREAAKEYAKDEAKTMSEEEAKRRAKKYKEKVLLSELSEEEQKEIKEAEEKLVRTILKYVEEAAK | FALSE
* E26Q (designed binder) SMEEEVEKAAKEYEKKKKEAIEKHLQKLKAKDKEAAERFLKELEEAAKEYAKDEAKTMSEEEAKRRAKKYKEKVLLSELSEEEQKEIKEAEEKLVRTILKYVEEAAK | FALSE
